Values from patent US7786108B2

tested on: transgenic mice that express both human CETP and human apolipoprotein A-1; assay: In vivo assay of plasma lipids: elevation of HDL cholesterol; conditions: Mus musculus; single oral dose 30 mg/kg; HDL cholesterol in serum at 8 hr after administration; relative to a control; read-out: % HDL cholesterol increase
Please provide measured change in vivo at 30 mg/kg for the entries that follow.
Please give a number only; it is taken to be in %.

### Prompt Please supply the value of reported change in vivo at 30 mg/kg for the item Cc1cc2c(cc1C(F)(F)F)N(Cc1ccc(C(=O)O)cc1)CCC[C@@H]2N(Cc1cc(C(F)(F)F)cc(C(F)(F)F)c1)c1nnn(C)n1
### Response 186

### Prompt Please supply the value of reported change in vivo at 30 mg/kg for the item Cc1cc2c(cc1C(F)(F)F)N(Cc1nccs1)CCC[C@@H]2N(Cc1cc(C(F)(F)F)cc(C(F)(F)F)c1)c1nnn(CCN)n1
### Response 92

### Prompt Please supply the value of reported change in vivo at 30 mg/kg for the item Cc1cc2c(cc1C(F)(F)F)N(Cc1ccncc1)CCC[C@@H]2N(Cc1cc(Cl)cc(Cl)c1)c1nnn(C)n1
### Response 124

### Prompt Please supply the value of reported change in vivo at 30 mg/kg for the item Cn1nnc(N(Cc2cc(C(F)(F)F)cc(C(F)(F)F)c2)[C@H]2CCCN(CC3CCCC3)c3cc4c(cc32)COC4)n1
### Response 374

### Prompt Please supply the value of reported change in vivo at 30 mg/kg for the item CCC(OC(=O)N1CCCC(N(Cc2cc(C(F)(F)F)cc(C(F)(F)F)c2)c2nnn(C)n2)c2cc(C)c(C(F)(F)F)cc21)C(C)C (racemic)
### Response 142

### Prompt Please supply the value of reported change in vivo at 30 mg/kg for the item Cc1cc2c(cc1C(F)(F)F)N(C(=O)OC(C)(C)C)CCC[C@@H]2N(Cc1cc(C(F)(F)F)cc(C(F)(F)F)c1)c1nnn(C)n1
### Response 73

### Prompt Please supply the value of reported change in vivo at 30 mg/kg for the item Cc1cc2c(cc1C(F)(F)F)N(Cc1ccc(O)c(C(=O)O)c1)CCC[C@@H]2N(Cc1cc(C(F)(F)F)cc(C(F)(F)F)c1)c1nnn(C)n1
### Response 74

### Prompt Please supply the value of reported change in vivo at 30 mg/kg for the item Cc1cc2c(cc1C(F)(F)F)N(CC1CCC(CC(=O)O)CC1)CCCC2N(Cc1cc(C(F)(F)F)cc(C(F)(F)F)c1)c1nnn(C)n1 (stereo not shown)
### Response 114

### Prompt Please supply the value of reported change in vivo at 30 mg/kg for the item CC(C)OC(=O)N1CCCC(N(Cc2cc(C(F)(F)F)cc(C(F)(F)F)c2)c2nnn(C)n2)c2cc3c(cc21)CCC3 (racemic)
### Response 127

### Prompt Please supply the value of reported change in vivo at 30 mg/kg for the item Cc1cc2c(cc1C(F)(F)F)N(CC1CCCC1)CCC[C@@H]2N(Cc1cc(C(F)(F)F)cc(C(F)(F)F)c1)c1nnn(C)n1
### Response 71

### Prompt Please supply the value of reported change in vivo at 30 mg/kg for the item Cc1cc2c(cc1C(F)(F)F)N(C1CCC(C(=O)O)CC1)CCC[C@@H]2N(Cc1cc(C(F)(F)F)cc(C(F)(F)F)c1)c1nnn(C)n1 (stereo partly shown)
### Response 100

### Prompt Please supply the value of reported change in vivo at 30 mg/kg for the item CCN1CCC[C@H](N(Cc2cc(C(F)(F)F)cc(C(F)(F)F)c2)c2nnn(C)n2)c2cc(C)c(C(F)(F)F)cc21
### Response 54

### Prompt Please supply the value of reported change in vivo at 30 mg/kg for the item Cc1cc2c(cc1C(F)(F)F)N(Cc1ccncc1)CCC[C@@H]2N(Cc1cc(Cl)cc(C(F)(F)F)c1)c1nnn(C)n1
### Response 91
